# Lookup of reported Ratio keyed by entry
- TARGET_UNDER_TEST: Endothelin receptor, ET-A/ET-B (Homo sapiens) (UniProt P24530+P25101)
- Sequence (P24530 whole entry, looked up): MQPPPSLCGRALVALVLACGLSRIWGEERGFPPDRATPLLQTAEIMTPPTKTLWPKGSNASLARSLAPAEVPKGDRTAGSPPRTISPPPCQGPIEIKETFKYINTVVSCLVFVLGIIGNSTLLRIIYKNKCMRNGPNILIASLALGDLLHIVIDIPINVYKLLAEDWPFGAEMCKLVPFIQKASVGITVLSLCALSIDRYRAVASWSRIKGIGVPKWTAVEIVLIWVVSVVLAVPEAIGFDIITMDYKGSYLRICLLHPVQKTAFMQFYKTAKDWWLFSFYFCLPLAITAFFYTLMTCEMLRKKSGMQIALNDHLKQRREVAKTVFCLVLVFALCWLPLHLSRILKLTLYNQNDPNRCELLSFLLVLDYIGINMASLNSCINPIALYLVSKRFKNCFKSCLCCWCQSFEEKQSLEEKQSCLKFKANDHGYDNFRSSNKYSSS
- Sequence (P25101 whole entry, looked up): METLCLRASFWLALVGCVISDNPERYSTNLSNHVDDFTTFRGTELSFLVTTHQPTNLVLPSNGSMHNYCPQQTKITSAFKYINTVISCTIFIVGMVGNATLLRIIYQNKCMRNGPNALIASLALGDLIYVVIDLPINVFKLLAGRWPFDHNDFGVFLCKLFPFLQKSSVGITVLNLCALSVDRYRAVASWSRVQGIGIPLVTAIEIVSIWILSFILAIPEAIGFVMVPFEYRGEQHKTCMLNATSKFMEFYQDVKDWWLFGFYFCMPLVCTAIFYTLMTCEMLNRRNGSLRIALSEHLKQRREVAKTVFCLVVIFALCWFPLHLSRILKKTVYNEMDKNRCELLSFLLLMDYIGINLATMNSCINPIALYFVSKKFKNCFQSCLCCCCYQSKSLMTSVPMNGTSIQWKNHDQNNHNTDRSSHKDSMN
- MEASUREMENT_NOTES: Ratio of binding affinity towards human endothelin receptor type A to human endothelin receptor type B (hETA to hETB)
- Format: protein assay
// no unit, no text: just the number

[[record]]
compound = "COc1ccc([C@H]2[C@H](C(=O)O)[C@@H](c3ccc4c(c3)OCO4)CN2CC(=O)NC(CC(C)(C)C)c2ccccc2)cc1 (stereo partly drawn)"
reported_property = "Ratio"
observed_value = 26.2


Qu. # lookup: Ratio of CCC(CC)C(NC(=O)CN1C[C@H](c2ccc3c(c2)OCO3)[C@@H](C(=O)O)[C@@H]1c1ccc(OC)cc1)c1ccccc1 (stereo partly drawn)
Ans. 2.27

Qu. # lookup: Ratio of Cc1ccccc1C(NC(=O)CN1C[C@H](c2ccc3c(c2)OCO3)[C@@H](C(=O)O)[C@@H]1c1ccc(OCCOC(C)C)cc1)c1ccccc1C (stereo in doubt; form 1)
Ans. 27200
